system: Parabacteroides distasonis; assay: growth AUC relative to DMSO control (median of replicates) (fraction); higher = more growth (less inhibition), active = hit call of the paper; conditions: 20 µM; 24 h
Use 0.9 as the dividing line for growth AUC, with the line itself on the rule met side and lower values as rule not met.

{"molecule": "CC(C)C(O)(c1ccc(OC(F)(F)F)cc1)c1cncnc1 (stereo not drawn)", "assigned_class": "rule met"}
{"molecule": "NC(Cn1cncn1)C(=O)O (stereo not drawn)", "assigned_class": "rule met"}
{"molecule": "CCC([O-])=C1C(=O)CC(C(=O)[O-])CC1=O.[Ca+2] (stereo not drawn)", "assigned_class": "rule met"}
{"molecule": "CN(C)C=O", "assigned_class": "rule met"}
{"molecule": "O=[N+]([O-])c1ccc(Oc2c(Cl)cc(Cl)cc2Cl)cc1", "assigned_class": "rule not met"}
{"molecule": "CC(C)(NC(=O)C(Br)C(C)(C)C)c1ccccc1 (stereo not drawn)", "assigned_class": "rule met"}
{"molecule": "C=CCOC(Cn1ccnc1)c1ccc(Cl)cc1Cl (stereo not drawn)", "assigned_class": "rule not met"}

====

test system: Collinsella aerofaciens; test: growth AUC relative to DMSO control (median of replicates) (fraction); higher = more growth (less inhibition), active = hit call of the paper; conditions: 20 µM; 24 h
Each entry below carries its recorded growth AUC.
measured_endpoint: growth AUC

{"mol": "O=C(O)[C@@H](S)[C@@H](S)C(=O)O", "tested_on": "Collinsella aerofaciens", "recorded_result": 1.02}
{"mol": "COC(=O)[C@@H](C)Oc1ccc(Oc2ncc(C(F)(F)F)cc2Cl)cc1", "tested_on": "Collinsella aerofaciens", "recorded_result": 0.981}
{"mol": "Nc1cccc(O)c1", "tested_on": "Collinsella aerofaciens", "recorded_result": 0.998}
{"mol": "N#Cc1cc(Cl)c(O)c(Cl)c1", "tested_on": "Collinsella aerofaciens", "recorded_result": 1}
{"mol": "Cc1c(C(=O)c2c[nH]n(C)c2=O)ccc(S(C)(=O)=O)c1C1=NOCC1", "tested_on": "Collinsella aerofaciens", "recorded_result": 0.976}
{"mol": "O=C(Nc1ccc(F)cc1-c1ccc(Cl)c(Cl)c1)c1cn[nH]c1C(F)F", "tested_on": "Collinsella aerofaciens", "recorded_result": 1.01}
{"mol": "Nc1cc(Cl)nc(C(=O)O)c1Cl", "tested_on": "Collinsella aerofaciens", "recorded_result": 0.997}
{"mol": "CSc1nnc(C(C)(C)C)c(=O)n1/N=C/C(C)C", "tested_on": "Collinsella aerofaciens", "recorded_result": 1.02}

====

system: Parabacteroides distasonis; experiment: growth AUC relative to DMSO control (median of replicates) (fraction); higher = more growth (less inhibition), active = hit call of the paper; settings: 20 µM; 24 h

{"compound": "S=C([S-])NCCNC(=S)[S-].S=C([S-])NCCNC(=S)[S-].[Mn+2].[Zn+2]", "growth AUC": 1.01}
{"compound": "COc1cc(OC)c(Cl)cc1N", "growth AUC": 1.02}
{"compound": "O=S(=O)(Oc1ccc(Cl)cc1Cl)c1ccccc1", "growth AUC": 0.972}
{"compound": "O=C=NC1CCC(CC2CCC(N=C=O)CC2)CC1 (centres undefined)", "growth AUC": 1}

====

system: Parabacteroides distasonis; assay: growth AUC relative to DMSO control (median of replicates) (fraction); higher = more growth (less inhibition), active = hit call of the paper; conditions: 20 µM; 24 h
Use 1 as the dividing line for growth AUC, with the line itself on the Y side and lower values as N.

{"mol": "COCCN(C(=O)CO)c1c(C)cccc1C(=O)O", "tested_on": "Parabacteroides distasonis", "assigned_class": "N"}
{"mol": "CN(C(=O)NC(C)(C)c1ccccc1)c1ccccc1", "tested_on": "Parabacteroides distasonis", "assigned_class": "N"}
{"mol": "N#Cc1cc(Cl)c(O)c(Cl)c1", "tested_on": "Parabacteroides distasonis", "assigned_class": "N"}
{"mol": "CS(=O)(=O)c1ccc(C(=O)O)c(N)c1", "tested_on": "Parabacteroides distasonis", "assigned_class": "Y"}
{"mol": "Cl.NCCO/C=C/[C@H](N)C(=O)O", "tested_on": "Parabacteroides distasonis", "assigned_class": "N"}
{"mol": "O=C(O)COc1cc(N2C(=O)C3=C(CCCC3)C2=O)c(F)cc1Cl", "tested_on": "Parabacteroides distasonis", "assigned_class": "Y"}
{"mol": "COC(=O)[C@@H](C)Oc1ccc(Oc2ncc(C(F)(F)F)cc2Cl)cc1", "tested_on": "Parabacteroides distasonis", "assigned_class": "N"}
{"mol": "COc1cc(OC)nc(NC(=O)NS(=O)(=O)Nc2ccccc2C(=O)C2CC2)n1", "tested_on": "Parabacteroides distasonis", "assigned_class": "N"}
